Test system: ME-180
assay info: Bioassay for apoptosis (apoptotic EC50)
Assay type: cell-based, human
run conditions: Homo sapiens, ME-180, ME-180; unit inferred
measure name: EC50

Examples with their reported EC50 follow.
# compound, measured on, measure name, result
records = [
    ("CCCCCCCCCCCCCCCCC[C@]1(C)CCc2c(C)c(OCC(=O)O)c(C)c(C)c2O1", "ME-180", "EC50", "> 20 µg/mL"),
    ("Cc1c(C)c2c(c(C)c1OCC(=O)O)CC[C@@](C)(CCCC(C)CCCC(C)CCCC(C)C)O2 (some centres unmarked)", "ME-180", "EC50", "20 to 30 µg/mL"),
    ("COC(=O)COc1c(C)c(C)c2c(c1C)CC[C@@](C)(CCC[C@H](C)CCC[C@H](C)CCCC(C)C)O2", "ME-180", "EC50", "> 20 µg/mL"),
    ("Cc1c(C)c2c(c(C)c1OCC(N)=O)CC[C@@](C)(CCC[C@H](C)CCC[C@H](C)CCCC(C)C)O2", "ME-180", "EC50", "> 20 µg/mL"),
]

Recorded result, "Cc1c(C)c2c(c(C)c1OCC(=O)O)CCC(C)(C)O2" , EC50: > 20 µg/mL

* * *

Tested on: ME-180
assay info: Bioassay for apoptosis (apoptotic EC50)
Assay type: cell-based, human
run conditions: Homo sapiens, ME-180, ME-180; unit inferred
Parameter: EC50. Scope: all listed entries.

# compound, EC50
rows = [
    ("CC(C)=CCC/C(C)=C/C=C/C(C)=C/[C@]1(C)CCc2c(C)c(OCC(=O)O)c(C)c(C)c2O1 [Compound 18]", "> 20 µg/mL"),
]

Measured EC50, Cc1cc(OCC(=O)O)c(C)c2c1O[C@](C)(CCC[C@H](C)CCC[C@H](C)CCCC(C)C)CC2 [Compound 7] : 5 to 10 µg/mL

Entry Cc1c(OCC(=O)O)cc2c(c1C)O[C@](C)(CCC[C@H](C)CCC[C@H](C)CCCC(C)C)CC2 [Compound 8] ; EC50 = 5 to 10 µg/mL

# EC50 (compound: Cc1c(C)c2c(c(C)c1OCC(=O)O)CCC(C)(CCCC(C)CCCC(C)CCCC(C)C)O2 (racemic) [Compound 15] ) is > 20 µg/mL

Lookup result for Cc1c(C)c2c(c(C)c1OCC(=O)O)C=C[C@@](C)(CCC[C@H](C)CCC[C@H](C)CCCC(C)C)O2 [Compound 20] ; measured EC50: 1 to 5 µg/mL

Memo: Cc1c(C)c2c(c(C)c1OCC(=O)N(CC(=O)O)CC(=O)O)CC[C@@](C)(CCC[C@H](C)CCC[C@H](C)CCCC(C)C)O2 [Compound 12] , reported EC50: 5 to 10 µg/mL

For record Cc1cc(OCC(=O)O)cc2c1O[C@](C)(CCC[C@H](C)CCC[C@H](C)CCCC(C)C)CC2 [Compound 9] the listed EC50 is 5 to 10 µg/mL

* * *

System: MDA-MB-231
assay info: Bioassay for apoptosis (apoptotic EC50)
Type: cell-based, human
run conditions: Homo sapiens, MDA-MB-231, MDA-MB-231; unit inferred
The following compounds are shown together with reported EC50 values.

Solved entries (count: 5):
# compound, EC50
data = [
    ("Cc1c(C)c2c(c(C)c1OCC(=O)O)CCC(C)(C)O2 [Compound 14]", "> 20 µg/mL"),
    ("COC(=O)COc1c(C)c(C)c2c(c1C)CC[C@@](C)(CCC[C@H](C)CCC[C@H](C)CCCC(C)C)O2 [Compound 11]", "> 20 µg/mL"),
    ("Cc1c(C)c2c(c(C)c1OCC(=O)N(CC(=O)O)CC(=O)O)CC[C@@](C)(CCC[C@H](C)CCC[C@H](C)CCCC(C)C)O2 [Compound 12]", "5 to 10 µg/mL"),
    ("Cc1c(OCC(=O)O)cc2c(c1C)O[C@](C)(CCC[C@H](C)CCC[C@H](C)CCCC(C)C)CC2 [Compound 8]", "5 to 10 µg/mL"),
    ("Cc1c(C)c2c(c(C)c1OCC(N)=O)CC[C@@](C)(CCC[C@H](C)CCC[C@H](C)CCCC(C)C)O2 [Compound 10]", "> 20 µg/mL"),
]

EC50 reading for Cc1cc(OCC(=O)O)cc2c1O[C@](C)(CCC[C@H](C)CCC[C@H](C)CCCC(C)C)CC2 [Compound 9] : 5 to 10 µg/mL

Entry Cc1c(C)c2c(c(C)c1OCC(=O)O)CCC(C)(CCCC(C)CCCC(C)CCCC(C)C)O2 (racemic) [Compound 15] — recorded EC50 = 20 to 30 µg/mL

Looking up Cc1c(C)c2c(c(C)c1OCC(=O)O)CC[C@](C)(C(=O)O)O2 [Compound 16] , I see its EC50 listed as > 20 µg/mL

So for Cc1cc(OCC(=O)O)c(C)c2c1O[C@](C)(CCC[C@H](C)CCC[C@H](C)CCCC(C)C)CC2 [Compound 7] , the logged EC50 turned out to be 5 to 10 µg/mL
